assay.text: total protein half-life in vivo (active degradation + dilution); higher = more stable protein
particulars: E. coli NCM3722 delta-clpP delta-lon delta-hslV; growth: N-lim chemostat; doubling time 6 h
Catalogue of sequences with associated total protein half-life in vivo

Please review the entries below; each comes with its answer.
Please report the recorded total protein half-life in vivo for MKTLGEFIVEKQHEFSHATGELTALLSAIKLGAKIIHRDINKAGLVDILGASGAENVQGEVQQKLDLFANEKLKAALKARDIVAGIASEEEDEIVVFEGCEHAKYVVLMDPLDGSSNIDVNVSVGTIFSIYRRVTPVGTPVTEEDFLQPGNKQVAAGYVVYGSSTMLVYTTGCGVHAFTYDPSLGVFCLCQERMRFPEKGKTYSINEGNYIKFPNGVKKYIKFCQEEDKSTNRPYTSRYIGSLVADFHRNLLKGGIYLYPSTASHPDGKLRLLYECNPMAFLAEQAGGKASDGKERILDIIPETLHQRRSFFVGNDHMVEDVERFIREFPDA [P0A993] .
4.22 h

Cool, now MSESVQSNSAVLVHFTLKLDDGTTAESTRNNGKPALFRLGDASLSEGLEQHLLGLKVGDKTTFSLEPDAAFGVPSPDLIQYFSRREFMDAGEPEIGAIMLFTAMDGSEMPGVIREINGDSITVDFNHPLAGQTVHFDIEVLEIDPALEA [P0AEM0]
4.8 h

Here is the next sequence: `MQKFDTRTFQGLILTLQDYWARQGCTIVQPLDMEVGAGTSHPMTCLRELGPEPMAAAYVQPSRRPTDGRYGENPNRLQHYYQFQVVIKPSPDNIQELYLGSLKELGMDPTIHDIRFVEDNWENPTLGAWGLGWEVWLNGMEVTQFTYFQQVGGLECKPVTGEITYGLERLAMYIQGVDSVYDLVWSDGPLGKTTYGDVFHQNEVEQSTYNFEYADVDFLFTCFEQYEKEAQQLLALENPLPLPAYERILKAAHSFNLLDARKAISVTERQRYILRIRTLTKAVAEAYYASREALGFPMCNKDK`
6.13 h

Try this sequence too: MTDNPNKKTFWDKVHLDPTMLLILLALLVYSALVIWSASGQDIGMMERKIGQIAMGLVIMVVMAQIPPRVYEGWAPYLYIICIILLVAVDAFGAISKGAQRWLDLGIVRFQPSEIAKIAVPLMVARFINRDVCPPSLKNTGIALVLIFMPTLLVAAQPDLGTSILVALSGLFVLFLSGLSWRLIGVAVVLVAAFIPILWFFLMHDYQRQRVMMLLDPESDPLGAGYHIIQSKIAIGSGGLRGKGWLHGTQSQLEFLPERHTDFIFAVLAEELGLVGILILLALYILLIMRGLWIAARAQTTFGRVMAGGLMLILFVYVFVNIGMVSGILPVVGVPLPLVSYGGSALIVLMAGFGIVMSIHTHRKMLSKSV [P0ABG7]
6.32 h

Now, please, on to the next sequence.
Find the recorded total protein half-life in vivo belonging to MKLFAQGTSLDLSHPHVMGILNVTPDSFSDGGTHNSLIDAVKHANLMINAGATIIDVGGESTRPGAAEVSVEEELQRVIPVVEAIAQRFEVWISVDTSKPEVIRESAKVGAHIINDIRSLSEPGALEAAAETGLPVCLMHMQGNPKTMQEAPKYDDVFAEVNRYFIEQIARCEQAGIAKEKLLLDPGFGFGKNLSHNYSLLARLAEFHHFNLPLLVGMSRKSMIGQLLNVGPSERLSGSLACAVIAAMQGAHIIRVHDVKETVEAMRVVEATLSAKENKRYE [P0AC13] and report it.
4.15 h

Values compiled from the supplement of paper PMC11246515.
